Values from patent US6777413B2

molecular target: prothrombinase complex (Homo sapiens); experiment: prothrombinase inhibition assay (IIASE); conditions: plasma free system, Chromozym TH
Sequence (P00742 235-488 limits assumed): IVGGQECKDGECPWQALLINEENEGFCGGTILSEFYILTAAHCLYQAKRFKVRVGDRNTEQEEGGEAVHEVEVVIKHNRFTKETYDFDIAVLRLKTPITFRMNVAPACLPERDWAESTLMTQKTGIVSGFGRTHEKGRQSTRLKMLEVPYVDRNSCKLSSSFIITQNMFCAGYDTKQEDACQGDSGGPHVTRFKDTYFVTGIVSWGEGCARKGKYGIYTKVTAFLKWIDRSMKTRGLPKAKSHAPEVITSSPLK
Sequence (P00742 41-179 limits assumed): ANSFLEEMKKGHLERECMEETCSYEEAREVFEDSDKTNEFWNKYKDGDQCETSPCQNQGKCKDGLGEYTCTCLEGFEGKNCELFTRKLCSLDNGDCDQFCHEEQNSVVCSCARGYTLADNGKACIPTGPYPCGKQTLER
Sequence (P12259 29-737 partner limits assumed): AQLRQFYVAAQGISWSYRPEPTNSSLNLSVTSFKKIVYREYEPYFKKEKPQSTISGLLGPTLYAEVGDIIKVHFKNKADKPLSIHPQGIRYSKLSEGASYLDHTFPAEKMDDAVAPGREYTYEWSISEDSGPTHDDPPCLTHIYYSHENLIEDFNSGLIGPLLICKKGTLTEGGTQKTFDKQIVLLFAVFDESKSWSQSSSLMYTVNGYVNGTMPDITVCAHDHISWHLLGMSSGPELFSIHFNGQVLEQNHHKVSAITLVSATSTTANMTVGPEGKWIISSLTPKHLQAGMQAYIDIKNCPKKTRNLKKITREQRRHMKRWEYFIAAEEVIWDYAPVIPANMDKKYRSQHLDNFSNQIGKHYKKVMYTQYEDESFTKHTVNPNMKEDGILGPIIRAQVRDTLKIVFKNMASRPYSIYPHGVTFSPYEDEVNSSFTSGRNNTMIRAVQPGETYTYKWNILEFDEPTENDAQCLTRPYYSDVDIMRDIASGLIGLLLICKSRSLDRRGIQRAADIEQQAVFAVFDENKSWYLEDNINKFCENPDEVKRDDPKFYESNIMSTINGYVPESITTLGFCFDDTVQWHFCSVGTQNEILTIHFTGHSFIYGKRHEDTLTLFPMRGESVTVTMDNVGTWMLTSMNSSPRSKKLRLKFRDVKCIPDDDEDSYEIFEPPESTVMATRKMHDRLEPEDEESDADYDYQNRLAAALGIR
Sequence (P12259 1574-2224 partner limits assumed): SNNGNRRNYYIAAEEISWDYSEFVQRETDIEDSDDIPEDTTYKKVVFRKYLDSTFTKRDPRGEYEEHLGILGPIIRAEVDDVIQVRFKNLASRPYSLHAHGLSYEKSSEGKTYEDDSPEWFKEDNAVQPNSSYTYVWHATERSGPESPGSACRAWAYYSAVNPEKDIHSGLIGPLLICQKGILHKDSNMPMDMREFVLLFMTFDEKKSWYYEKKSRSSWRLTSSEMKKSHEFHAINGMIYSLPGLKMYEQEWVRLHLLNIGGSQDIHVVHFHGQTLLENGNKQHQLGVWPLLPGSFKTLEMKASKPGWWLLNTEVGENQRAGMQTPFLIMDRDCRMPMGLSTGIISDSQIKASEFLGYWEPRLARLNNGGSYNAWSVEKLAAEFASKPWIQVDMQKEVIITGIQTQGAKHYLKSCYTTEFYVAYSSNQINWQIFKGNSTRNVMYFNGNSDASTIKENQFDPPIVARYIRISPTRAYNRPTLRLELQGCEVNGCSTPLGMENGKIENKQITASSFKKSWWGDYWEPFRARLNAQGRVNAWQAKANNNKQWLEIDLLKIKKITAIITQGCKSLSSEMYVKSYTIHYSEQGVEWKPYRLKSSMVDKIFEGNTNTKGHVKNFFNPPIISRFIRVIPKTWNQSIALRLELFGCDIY
Property: IC50 (nM)

Reference set, count: 8
Structure smiles string: CC(=N)N1CCC(Oc2ccc3c(ccc(=O)n3Cc3ccc(-c4ccc(C(=N)N)cc4)cc3)c2)CC1
Property: IC50
Val: 8630

Structure smiles string: CC(=N)N1CCC(Oc2ccc3c(ccc(=O)n3Cc3ccccc3-c3ccc(C(=N)N)cc3)c2)CC1
Property: IC50
Val: 1200

Structure smiles string: N=C(N)c1cccc(-c2ccc(Cn3c(=O)ccc4cc(OC5CCNCC5)ccc43)cc2)c1
Property: IC50
Val: 38200

Structure smiles string: CN1CCC(Oc2ccc3c(ccc(=O)n3Cc3ccc4ccc(C(=N)N)cc4c3)c2)CC1
Property: IC50
Val: 2580

Structure smiles string: CCn1c(Cn2c(=O)ccc3cc(OC4CCN(C(C)=N)CC4)ccc32)cc2ccc(C(=N)NN)cc21
Property: IC50
Val: 1210

Structure smiles string: N=C(N)c1ccc(-c2ccccc2Cn2c(=O)ccc3cc(OC4CCNCC4)ccc32)cc1
Property: IC50
Val: 1920

Structure smiles string: N=C(N)c1ccc(-c2ccc(Cn3c(=O)ccc4cc(OC5CCNCC5)ccc43)cc2)cc1
Property: IC50
Val: 15500

Structure smiles string: CC(=N)N1CCC(Oc2ccc3c(ccc(=O)n3Cc3cccc(-c4ccc(C(=N)N)cc4)c3)c2)CC1
Property: IC50
Val: 33500

P: CC(=N)N1CCC(Oc2ccc3c(ccc(=O)n3Cc3ccc(-c4cccc(C(=N)N)c4)cc3)c2)CC1
Q: N=C(N)c1cccc(-c2ccccc2Cn2c(=O)ccc3cc(OC4CCNCC4)ccc32)c1
R: N=C(N)c1ccc2ccc(Cn3c(=O)ccc4cc(OC5CCNCC5)ccc43)cc2c1
S: CC(=N)N1CCC(Oc2ccc3c(ccc(=O)n3Cc3cccc(-c4cccc(C(=N)N)c4)c3)c2)CC1
Sort low-to-high on IC50, please. Please write the labels in the order that was asked for.
S, P, Q, R
(S: 157 nM, P: 362 nM, Q: 2180 nM, R: 9110 nM)

1: CCn1c(Cn2c(=O)ccc3cc(OC4CCN(C(C)=N)CC4)ccc32)cc2ccc(C(=N)N)cc21
2: CC(=N)N1CCC(Oc2ccc3c(ccc(=O)n3Cc3ccccc3-c3cccc(C(=N)N)c3)c2)CC1
3: N=C(N)c1ccc2ccc(Cn3c(=O)ccc4cc(OC5CCN(c6ncccn6)CC5)ccc43)cc2c1
4: N=C(N)c1cccc(-c2cccc(Cn3c(=O)ccc4cc(OC5CCNCC5)ccc43)c2)c1
Rank ascending by IC50. Output the labels ranked as instructed.
1, 2, 3, 4
